Data provenance: ChEMBL document CHEMBL1152557

- System: Giardia intestinalis
- assay-remarks: Antigiardial activity against Giardia lamblia WB (ATCC 30957) trophozoites after 24 hrs by trypan blue assay
- Assay type: functional, organism-based
- run-conditions: Giardia duodenalis
attribute-measured: IC50 (µg/mL)

# smiles-record, endpoint-result
measured = [
    ("Cc1ncc([N+](=O)[O-])n1CCO", 2.88),
    ("COc1ccc(C(=O)/C=C/c2ccc(Cl)cc2)cc1", 15),
    ("COc1ccc(C(=O)/C=C/c2ccccc2F)cc1", 12.7),
    ("Cc1ccc(/C=C/C(=O)c2ccc(F)cc2)cc1", 15.3),
]
